# Procedure Summary: Human HepG2 cell viability assay in 384 well format
# Type: toxicity, cell-based
# Design: dose 125 nL, time 70.5 hour; concentration not given beside the values
# Measurement Setup: HepG2 cells, read-out: Inhibition
The following compounds are shown together with reported cytotoxicity at 70.5 h values.
Property: cytotoxicity at 70.5 h (%)

>>> test_result("CC(C)CN1C[C@H]2CCN(C(=O)C3CCCO3)CC[C@H]2S1(=O)=O (stereo partly drawn)")
-8.39
>>> test_result("CCOCCC(=O)NC(c1noc(C)n1)c1ccccc1F (stereo not drawn)")
-7.31
>>> test_result("CC[C@H](C)[C@H](N)C(=O)N1CC(=O)c2sc(NCc3ccccc3)nc2C1")
7.34
>>> test_result("CC(=O)N[C@H]1CCN(C(=O)c2cc(Cn3cnc4ccccc43)[nH]n2)C1")
-3.6
>>> test_result("c1cncc(COCC2CC[C@H]3[C@H](CCN3CC3CCOCC3)O2)c1 (stereo partly drawn)")
24.3
>>> test_result("COCCN(C)C1COC2(CCN(Cc3ccccn3)CC2)C1 (stereo not drawn)")
11.6
>>> test_result("COc1cc(Cc2nc3c([nH]2)CC(C)(C)CNC3=O)cc(OC)c1")
8.47
>>> test_result("Cc1cnn(CC2CCCN2Cc2noc(C(C)(C)C)n2)c1 (stereo not drawn)")
-2.54
>>> test_result("Cn1cnnc1-c1ccnc(NCc2ccc3c(c2)OCCO3)c1")
-3.05
>>> test_result("CCC1CN(CCCO)c2ccccc2O1 (stereo not drawn)")
0.738
>>> test_result("CC(C)NC(=O)N1CCC2(COCc3cnc(-c4cccnc4)nc32)C1 (stereo not drawn)")
-2.99
>>> test_result("CCN(Cc1nonc1C)C(=O)Cn1nc(C(F)(F)F)cc1C1CC1")
-5.16
>>> test_result("COc1ccccc1C(=O)N1CCNCC1C(N)=O (stereo not drawn)")
-2.25
>>> test_result("CO[C@H]1CNC[C@@H]1NC(=O)c1cc(C)nc2c(C)cc(C)cc12")
2.49
>>> test_result("COc1ccc(C(=O)C2CCCN(Cc3ccncc3)C2)cc1OC (stereo not drawn)")
-3.65
>>> test_result("COc1ccc(-c2csc(N)c2C#N)cc1")
-24.3
>>> test_result("Cc1nc(NC(=O)c2c(-n3cnnn3)sc3c2CCCC3)sc1C")
-10.4
>>> test_result("O=S(=O)(NCC1COc2ccccc2C1)N1CCCCC1 (stereo not drawn)")
-9.29
>>> test_result("CC(C)c1nnc(NC(=O)Cc2ccc(F)cc2)[nH]1")
-13.1
>>> test_result("CCC(C)[C@H](N)c1nnc(SCC(=O)Nc2ccc(Br)cc2)o1 (stereo partly drawn)")
-13.2
>>> test_result("CCc1nc(CNC(=O)C2CCC(=O)N(Cc3ccccc3F)C2)no1 (stereo not drawn)")
-8.67
>>> test_result("CC(C)OCC(=O)Nc1ccc(Oc2ccc3c(c2)OCO3)nc1")
-5.21
>>> test_result("NC1(C(=O)N2CCC(c3cc(-c4ccccc4Cl)n[nH]3)CC2)CCC1")
46.9
>>> test_result("CC(C)C(=O)NC1CCN(CCO)CC1")
4.41
>>> test_result("CN1CC2(CCC1=O)CCN(CC[C@@H](O)c1ccccc1)CC2")
19.6
>>> test_result("CN(CC(F)(F)F)C(=O)CNC(=O)Cc1cccc(O)c1")
1.12
>>> test_result("CCc1nc(C2CCCN2C(=O)c2cc(C3CC3)[nH]n2)no1 (stereo not drawn)")
-1.42
>>> test_result("Cc1ccc(C(=O)N2CCCS2(=O)=O)cc1Cl")
-19.9
>>> test_result("CCOc1ccc(N2CCCN=C2NC(=O)c2ccccc2C)cc1")
-12.8
>>> test_result("CN(C)C(=O)CCc1cncc(C2CCCN2Cc2ccccn2)n1 (stereo not drawn)")
-6.05
>>> test_result("COCc1cc(NCCCSc2nnc(C)s2)ncn1")
-6.65
>>> test_result("CN(Cc1ccccc1C#N)C1CCN(CCc2ccccn2)CC1")
-3.57
>>> test_result("Cc1[nH]ccc1C(=O)N[C@H]1CN(S(C)(=O)=O)C[C@@H]1C1CC1")
-5.26
>>> test_result("CN(Cc1c(F)cccc1Cl)C(=O)Cn1cnc(C#N)n1")
-7.04
>>> test_result("O=C(C1CCCc2[nH]ncc21)N1CCCC1 (stereo not drawn)")
-4.89
>>> test_result("CCc1nc(CN2CCC(C(=O)N(C)C)CC2)cs1")
0.679
>>> test_result("COc1ccc(C(=O)C2CCCN(CCc3ccccc3)C2)c(OC)c1 (stereo not drawn)")
18.4
>>> test_result("Cc1nn(C)c(C)c1CC(=O)NCc1cccnc1N1CCOCC1")
-5.49
>>> test_result("CN(C)CCNC(=O)c1cc2n(n1)CCN(C(=O)CC(C)(C)C)C2")
-9.74
>>> test_result("Cc1ccc(S(=O)(=O)c2ncccc2CN2CCN(CCO)CC2)cc1")
-30.6
>>> test_result("Cc1oc(C)c(C(=O)NCc2ccccc2S(=O)(=O)N(C)C)c1C")
-2.12
>>> test_result("Cc1cccc(CN2CCCC23CCNC3)n1 (stereo not drawn)")
24.8
>>> test_result("CCOc1ccc(Cl)c(C(=O)N2CCN(CCO)CC2)n1")
-6.15
>>> test_result("CCN1C(=O)CCC12CCN(S(=O)(=O)c1ccccc1)CC2")
-4.14
>>> test_result("Cc1ccccc1CC(C)(C)NC(=O)c1cccc(OCC(N)=O)c1")
-4.51
>>> test_result("O=C(NC1CCN(C2CC2)CC1)c1cn(-c2ccc(Cl)cc2)nn1")
-7.11
>>> test_result("CCc1ccccc1OCCN(C)C(=O)CN1CCCC1")
-6.67
>>> test_result("CCn1ncnc1CN1CCc2[nH]cnc2C1c1ccccn1 (stereo not drawn)")
14.3

###

# Procedure Summary: Human HepG2 cell viability assay in 384 well format
# Format: toxicity, cell-based
# Parameters: dose 125 nL, time 70.5 hour; concentration not given beside the values
# Measurement Setup: HepG2 cells, read-out: Inhibition
Property: cytotoxicity at 70.5 h (%)

>>> test_result("COCCN(Cc1ccccn1)C(=O)Nc1cccnc1N1CCCC1")
-12.3
>>> test_result("COc1ccc(C)cc1S(=O)(=O)NCCC(O)c1ccccc1 (stereo not drawn)")
-10.5
>>> test_result("Cc1cc(C(=O)CN(Cc2cccnc2)CC2CCCO2)c(C)[nH]1 (stereo not drawn)")
-15.9
>>> test_result("CCc1n[nH]c(C2CN(CCc3cccs3)CCO2)n1 (stereo not drawn)")
22.1
>>> test_result("CC1CCCN(S(=O)(=O)NCCN/C(O)=C2/N=CC=CC2=O)C1 (stereo not drawn)")
0.429
>>> test_result("Cc1cnn(CCNCc2cc(-c3ccccc3)no2)c1")
7.59
>>> test_result("CN(C)Cc1cc(CC2(NCc3ccccc3Cl)COC2)no1")
-2.7
>>> test_result("O=C([C@@H]1Cc2[nH]cnc2CN1Cc1cc2ccccc2o1)N1CCCC1")
8.38
>>> test_result("Cc1ccc(CNC(=O)NC(C)CCS(C)(=O)=O)cc1F (stereo not drawn)")
-7.34
>>> test_result("CN(CCO)Cc1nnc(C2CCN(C[C@H]3[C@@H]4CNC[C@@H]43)CC2)n1C")
9.78
>>> test_result("COCCN(Cc1ccccc1)C(=O)c1cnn(C)c1C")
-8.55
>>> test_result("CCN1C(=O)CC(c2cccnc2)C12CCN(c1ncc(F)cn1)CC2 (stereo not drawn)")
1.09
>>> test_result("Cc1nc(C(NS(=O)(=O)N(C)C)c2ccccc2F)no1 (stereo not drawn)")
-2.92
>>> test_result("CCN(CC)Cc1nc2c(o1)CN(S(=O)(=O)c1cccs1)C2")
-10.4
>>> test_result("O=C(c1ccco1)N1C[C@H]2CCCN(C(=O)c3ccsc3)[C@H]2C1")
-16.2
>>> test_result("Cc1cccc(CN2CCN(C(=O)N(C)C)[C@@H]3CS(=O)(=O)C[C@@H]32)n1")
2.11
>>> test_result("Fc1cccc(-c2nc(CN3CCOC(Cn4cccn4)C3)co2)c1 (stereo not drawn)")
-11.5
>>> test_result("CCOc1ccc(Cl)c(C(=O)N2CCN(C(=O)OC)CC2)n1")
-14.3
>>> test_result("CCn1ccnc1CN(C)Cc1nc(Cc2ccccc2F)no1")
7.48
>>> test_result("O=C(CCn1cnc2cc(F)c(F)cc21)N1CCN(C2CC2)CC1")
-5.93
>>> test_result("Cc1c(F)cc(C(=O)O)cc1S(=O)(=O)Nc1ccc2c(c1)OCCO2")
-2.52
>>> test_result("CCCc1nc(N2CCC(CCO)CC2)c2cnn(C)c2n1")
-2.39
>>> test_result("COc1ccccc1C1=NOC(CC2(C(=O)NCCO)CCOCC2)C1 (stereo not drawn)")
0.737

###

Overview of recorded cytotoxicity at 70.5 h for various compounds
# Procedure Summary: Human HepG2 cell viability assay in 384 well format
# Type: toxicity, cell-based
# Set-up: dose 125 nL, time 70.5 hour; concentration not given beside the values
# Measurement Setup: HepG2 cells, read-out: Inhibition
Property: cytotoxicity at 70.5 h

>>> test_result("O=C(NCc1ccc(-n2cncn2)nc1)c1ccoc1")
"22.2%"
>>> test_result("Cc1cc(C(=O)N2CCCC2c2nnc3n2CCCCC3)no1 (stereo unspecified)")
"-7.37%"
>>> test_result("CSC(C)(C)CNC(=O)NCc1cccc(-n2ccnc2)c1")
"-12.4%"
>>> test_result("Cc1cc2[nH]c(=O)c(=O)[nH]c2cc1S(=O)(=O)NC1CCC(C)CC1 (stereo unspecified)")
"-5.16%"
>>> test_result("Cn1ccnc1CN1CCCN(C(=O)COC2CCCCC2)CC1")
"22.3%"
>>> test_result("CO[C@H]1CN(C(C)C)C[C@@H]1NC(=O)c1cc(COc2ccccc2)[nH]n1")
"-3.71%"
>>> test_result("O=C(c1ccccc1)N1C[C@H]2CCC[C@@]2(COCc2ccncc2)C1")
"0.753%"
>>> test_result("CC(=O)N1CCN(c2nc3c(cnn3C(C)(C)C)c(=O)[nH]2)CC1")
"-1.03%"
>>> test_result("CCC(CNC(=O)c1cc(CC(C)C)nn1C)N(C)CC (stereo unspecified)")
"-8.14%"
>>> test_result("Cc1ccc(CN2C[C@H](C(=O)N3CCCCO3)[C@@H]3CCO[C@@H]3C2)o1")
"-5.78%"
>>> test_result("O=C(NCc1cc[nH]n1)NCC(O)COc1cccc(F)c1 (stereo unspecified)")
"22.7%"
